# method-notes: Selectivity ratio of IC50 (rat liver)/IC50 (Pneumocystis carinii)
reported-property: Selectivity ratio

Name the recorded Selectivity ratio for "COc1cc(Cc2cnc(N)nc2N)cc(OC)c1Br" .
0.048

Name the recorded Selectivity ratio for "COc1cc(N(C)Cc2c(Br)sc3nc(N)nc(N)c23)cc(OC)c1OC" .
0.88

Name the recorded Selectivity ratio for "COc1cc(NCc2c(Br)sc3nc(N)nc(N)c23)cc(OC)c1OC" .
1.2

Name the recorded Selectivity ratio for "Nc1nc(N)c2c(CNc3cc(Cl)c(-n4cccc4)c(Cl)c3)c(Br)sc2n1" .
1.4

====

So I've got a bunch of molecules here, and I need their IC50 values.
Numeric answer only, unit µM assumed.

Can you look up IC50 on Dihydrofolate reductase (Pneumocystis carinii) for "COc1cc(NCc2c(Br)sc3nc(N)nc(N)c23)cc(OC)c1OC" ?
13

Can you look up IC50 on Dihydrofolate reductase (Pneumocystis carinii) for "COc1cc(N(C)Cc2c(Br)sc3nc(N)nc(N)c23)cc(OC)c1OC" ?
31
